Every entry's value here was drawn from PubChem BioAssay (NCI).

System: BT-549 breast
Assay Comment: NCI tumour cell line growth inhibition, 48 h; in the data active = GI50 below about 0.43 µM; inactive = the rest
Bench note: report the call from active, inactive

A selection of reference data follows.
COc1ccc(/C=C/C(=O)c2ccc(Nc3nc(Nc4ccc(F)cc4)nc(Nc4ccc(F)cc4)n3)cc2)cc1
inactive
O=C(/C=C/c1ccc(Cl)cc1Cl)c1ccc(Cl)cc1Cl
inactive
COc1ccc(F)cc1-c1ccnc2[nH]c(C3=CCN(C4CCC(CC(=O)O)CC4)CC3)cc12 (stereo unspecified)
active
N=C1C=C(N)C(=O)c2ccccc21
inactive
Cc1cc2nc(-c3ccc(O)c(O)c3)n(Cc3ccc(O)c(O)c3)c2cc1C
inactive
N#Cc1cc2c(cc1Cl)SC(=Nc1ccccc1)N(S(=O)(=O)c1ccc(Br)s1)S2(=O)=O
inactive
CSc1nc2ccc(C)cc2cc1/C=C1/C=C(c2ccccc2)NC1=O
inactive
C=Cc1cc(OC)c2c(c1)c(=O)oc1c2cc(OC)c2c(O)ccc(C3OC(C(C)O)C(O)C3O)c21 (stereo unspecified)
active

Check the results log: what was the call for "N=C(N)c1ccc(-c2ccc(-c3ccc(Cl)cc3Cl)s2)nc1" ?
inactive

Check the results log: what was the call for "CN(C)CCOc1ccc2c(c1)C(=O)/C(=C\c1ncc([N+](=O)[O-])n1C)C2" ?
active

Check the results log: what was the call for "Cc1nc2sc(C(=O)Nc3ccccc3)c(N)c2cc1C(=O)c1ccccc1" ?
inactive

----------
Tested on: A498 renal
Assay Comment: NCI tumour cell line growth inhibition, 48 h
Property Label: TGI

N=C1C=C(N)C(=O)c2ccccc21
2.95 µM
C=C1CC(O)C2C(=C)C(=O)OC2C2C(C)C(=O)CC12 (configuration not stated)
63.3 µM
OC(CCl)CN1CC[N+]2(CC1)CC[N+]1(CCN(CC(O)CCl)CC1)CC2 (configuration not stated)
> 50 µM
CCOc1ccccc1N=Cc1c2ccccc2cc2ccccc12
> 72.4 µM
CCOC(=O)C1CCCN1C(=O)c1ccccc1Cl (configuration not stated)
> 100 µM
O=C(N/C(=C\c1ccc(F)cc1)c1nc2ccccc2[nH]1)c1ccccc1
> 100 µM

// recorded TGI for "Cc1c2ccccc2c(C)n2c1nc1cc(Cl)c(Cl)cc12" : > 100 µM

// recorded TGI for "CC(C)OP(=O)(OC(C)C)/C(C#N)=C/c1c[nH]c2ccccc12" : > 100 µM

// recorded TGI for CC(CC(=O)Nc1ccc(NC(=O)CC(C)N=NC(N)=O)cc1)N=NC(N)=O (configuration not stated) : > 100 µM

// recorded TGI for "Cc1ccc(C)c(NC(=O)C(=O)Nn2c(=S)[nH]c3ccccc3c2=O)c1" : > 100 µM

// recorded TGI for CC1(C2CCC3(C)C(C2)C3Sc2ccccc2)OCCO1 (configuration not stated) : 36.4 µM

----------
Test system: A498 renal
Assay Comment: NCI tumour cell line growth inhibition, 48 h
Entries and their GI50

A selection of reference data follows.
O=S(=O)(Nc1ccc(Cl)c(Cl)c1)c1ccc(-c2cnc(C3CC3)o2)cc1
0.273 µM
N#Cc1cc2c(cc1Cl)SC(=Nc1ccccc1)N(S(=O)(=O)c1ccc(Br)s1)S2(=O)=O
21.9 µM
COc1ccc2c(c1)C=CC1C2CC[C@]2(C)C(NC(=O)/C=C/c3ccc(O)c(O)c3)CCC12 (stereo not given in full)
19.9 µM
COc1ccc(S(=O)(=O)Nc2cc(Sc3cccc4cccnc34)c(O)c3ccccc23)cc1
2.27 µM

Switching to the query record.
// recorded GI50 for "CS(=O)(=O)CCNCc1ccoc1-c1ccc2ncnc(Nc3ccc(OCc4ccccc4)cc3)c2c1" : 20.5 µM
